Test: Phase I study plasma pharmacokinetics
Format: in vivo, human
Conditions: human, plasma, po, 400 mg/day, Day 1 first dose; 400 mg/day BID; n=11; mean
reported property: AUC(0-t)

# input Please look up its AUC(0-t): Cc1ccc2c(Nc3cccc(Cl)c3F)nccc2c1NC(=O)c1csc2c(N)ncnc12
# output 62300 ng·h/mL

###

Test: Phase I study plasma pharmacokinetics
Assay type: in vivo, human
Settings: human, plasma, oral, 50 mg/day, Multiple administrations Day 17; 50 mg/day QD; n=2; mean; read-out: Vz/F
reported property: Vd/F
Value and unit, in that order.

# input Please look up its Vd/F: Cc1ccc2c(Nc3cccc(Cl)c3F)nccc2c1NC(=O)c1csc2c(N)ncnc12 [Belvarafenib]
# output 57.6 L

###

Assay: Phase I study plasma pharmacokinetics
Format: in vivo, human
Details: human, plasma, po, 600 mg/day, Day 1 first dose; 600 mg/day QD; n=6; median; read-out: Tmax
reported property: Tmax (h)
Give bare numbers, in h.

# input Please look up its Tmax: Cc1ccc2c(Nc3cccc(Cl)c3F)nccc2c1NC(=O)c1csc2c(N)ncnc12
# output 4.5

###

Tested on: MEK and ERK phosphorylation in A375 (BRAF^V600E) cells
Test: Inhibition of MEK and ERK phosphorylation
Format: cell-based
Conditions: Homo sapiens, A-375, read-out: IC50 pMEK
reported property: IC50 (nM)
Numbers only, in nM.

# input What IC50 appears in the records for this compound with MEK and ERK phosphorylation in A375 (BRAF^V600E) cells? Cc1ccc2c(Nc3cccc(Cl)c3F)nccc2c1NC(=O)c1csc2c(N)ncnc12
# output 42

***
# input What IC50 appears in the records for this compound with MEK and ERK phosphorylation in A375 (BRAF^V600E) cells? CCCS(=O)(=O)Nc1ccc(F)c(C(=O)c2c[nH]c3ncc(-c4ccc(Cl)cc4)cc23)c1F [Vemurafenib, reference compound]
# output 73

###

Assay: Phase I study plasma pharmacokinetics
Assay type: in vivo, human
Settings: human, plasma, po, 400 mg/day BID, Day 1 first dose; 400 mg/day BID; n=11; mean; read-out: Vz/F
reported property: Vd/F (L)
Give bare numbers, in L.

# input Please look up its Vd/F: Cc1ccc2c(Nc3cccc(Cl)c3F)nccc2c1NC(=O)c1csc2c(N)ncnc12
# output 758

###

Test: Phase I study plasma pharmacokinetics
Type: in vivo, human
Settings: human, plasma, oral, 600 mg/day, Multiple administrations Day 22; 600 mg/day BID; n=6; mean
reported property: Cmax (ng/mL)
Numbers only, in ng/mL.

# input Please look up its Cmax: Cc1ccc2c(Nc3cccc(Cl)c3F)nccc2c1NC(=O)c1csc2c(N)ncnc12
# output 5700

###

Test: Phase I study plasma pharmacokinetics
Assay type: in vivo, human
Details: human, plasma, po, 900 mg/day, Day 1 first dose; 900 mg/day BID; n=8; mean; read-out: Vz/F
reported property: Vd/F

# input Please look up its Vd/F: Cc1ccc2c(Nc3cccc(Cl)c3F)nccc2c1NC(=O)c1csc2c(N)ncnc12
# output 534 L

###

Assay: Phase I study plasma pharmacokinetics
Assay type: in vivo, human
Details: human, plasma, oral, 100 mg/day, Multiple administrations Day 22; 100 mg/day QD; n=3; mean
reported property: AUC(0-inf) (µg·h/mL)
Give bare numbers, in µg·h/mL.

# input Please look up its AUC(0-inf): Cc1ccc2c(Nc3cccc(Cl)c3F)nccc2c1NC(=O)c1csc2c(N)ncnc12
# output 349
